Every entry's value here was drawn from the kinase profiling compilation of Christmann-Franck et al. (2016).

Exercise: for every item that follows, state its recorded residual activity.
- Target Desc: AURKB (human)
- Assay Details: radiometric filter-binding kinase assay
- Assay Context: compound 10.0 µM
Please make sure the unit comes right after the number.

N#Cc1c(O)c2c(-c3ccc(-c4ccccc4O)cc3)csc2[nH]c1=O    53%

I need residual activity for every entry listed below, if you could help.
1. CCOC(=O)c1ccc(N2NC(=O)/C(=C/c3ccc([N+](=O)[O-])o3)C2=O)cc1
2. Oc1ccc(/C=C/c2cc(O)cc(O)c2)cc1
3. NC(=O)c1cc2c(-c3cccc(-c4ccccc4)c3)cnc(N)c2s1
4. O=C(O)c1ccc(-c2c[nH]c3ncc(-c4ccccc4)cc23)cc1C1CCCC1
5. CCc1cncnc1N1CCN(Cc2nc3cc(C(F)(F)F)ccc3[nH]2)CC1

Result ::
1. 102%
2. 62%
3. 43%
4. 6%
5. 49%
